Give protein stability index for every item shown.
B1: SLC19A2 (parent)
chain: IYPVWTYSYLVLLFPVFLATDYLR

Variants of: B1
TEST METHOD NOTES: protein stability index of a GFP-peptide fusion (GPS, HEK-293T) (PSI 1-6); higher = more stable;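 further: lentivirally expressed fusions sorted by FACS into six bins by GFP to DsRed ratio, PSI derived from sequencing read proportions per bin multiplied by bin number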
ASSAY SETUP: c terminus: a fixed tail appended
Reply: number alone, nothing else.

Just so you know, measured protein stability index for `IYPVWTYSYLVLLIPVFLATDYLR` came out at 3.07

// protein stability index value for `IYAVWTYSYLVLLFPVFLATDYLR` : 3.47

Documented protein stability index of `IYPVWTYSYLVLLFPAFLATDYLR` : 3.1

protein stability index in this record for `IYPVWTYSYLVLLFPVFLATDYLD` : 2.64

protein stability index for `IYLVWTYSYLVLLFPVFLATDYLR` is 3.98

Entry under test: `IYPVWTYSYLVLLFEVFLATDYLR` . Its protein stability index was 3.03

Lookup result for `IYPVWTYLYLVLLFPVFLATDYLR` ; measured protein stability index: 2.69

`IYPVWTYSYLVLLFPEFLATDYLR` has a reported protein stability index of 1.72

variant `IYPVWTYSYLVLLFPVFLATDYLQ` , protein stability index observed: 3.46

Documented protein stability index of `IYPVWTYSYLVLLFPVFLAEDYLR` : 1.62

Notebook: `IYPVRTYSYLVLLFPVFLATDYLR` , protein stability index read as 3.39

Sure, the documented protein stability index for `YYPVWTYSYLVLLFPVFLATDYLR` is 1.63
